We begin with a simple list: items and their reported pIC50.
# System: P. falciparum 3D7 growth, pLDH absorbance
# ASSAY_EXPLANATION: blood-stage malaria parasite growth potency – strain 3D7, dose response (AID 2305)
For clarity, pIC50 is expressed as the negative log10 of concentration in mol/L.

A selection of reference data follows.
Cc1cccc2[nH]c(-c3ccc(-c4ccc(NC(=O)Nc5ccc(F)c(F)c5F)cc4)s3)nc12
6.74
COc1cc(Cc2cnc3nc(N)nc(N)c3c2C)cc(OC)c1OC
7.22
CN(C)Cc1ccc(-c2cc3c(Nc4ccc(OCc5cccc(F)c5)c(Cl)c4)ncnc3s2)[nH]1
6.09
Cc1cc(OCC2CCN(c3ncc(C(=O)Nc4ccccc4)cc3Cl)CC2)ccc1F
6.05
O=[N+]([O-])c1ccccc1C=NNc1ccnc2ccc(C(F)(F)F)cc12
6.15
CCCCCCC(C)(C)c1cc(O)c2c3c(c(=O)oc2c1)CCN(Cc1ccccc1)C3
6.66
CN(C)CCNc1ncnc2c1[nH]c1ccc(Br)cc12
6.13
O=C(NC1CC1)c1ccc(N2CCCC(COc3ccc4c(c3)CCCC4)C2)nc1 (centres undefined)
5.97
COc1ccc2nccc([C@@H](O)CN3CCC(NC(=O)Cc4ccc(Br)c5ccccc45)CC3)c2c1
6.09
CC(C)Cc1ccc(N2CCN(CCCCNC(=O)c3ccc(NC(=O)c4cc(C(F)(F)F)cc(C(F)(F)F)c4)cc3)CC2)cc1
6.74

Give P. falciparum 3D7 growth, pLDH absorbance pIC50 for the following compound: CC(CN1CCN(C)CC1)C(=O)Nc1cccc(-c2ccc(-c3nc4ccc(F)cc4[nH]3)cc2)c1 (centres undefined)
6.09

Report pIC50 from P. falciparum 3D7 growth, pLDH absorbance testing of CC(CN1CCN(C)CC1)C(=O)Nc1cccc(-c2ccc(-c3nc4ccccc4[nH]3)s2)c1 (centres undefined)
6.20

Param request: pIC50 | system P. falciparum 3D7 growth, pLDH absorbance | item O=C(CSc1nc2ccc([N+](=O)[O-])cc2s1)Nc1ccccc1-c1ccccc1
5.93

State recorded pIC50 with P. falciparum 3D7 growth, pLDH absorbance, entry COc1ccc(CNc2ccnc(-n3cnc4cc(C)c(C)cc43)n2)cc1Cl , no comment.
6.57

---

# Tested on: P. falciparum 3D7 growth, pLDH absorbance
# ASSAY_EXPLANATION: blood-stage malaria parasite growth potency – strain 3D7, dose response (AID 2305)
Kindly apply the following: criterion met if IC50 is less than 700 nM, criterion not met in every other case.

Worked cases, answers included:
O=C(CCNc1ccnc(NCCc2ccc(F)cc2)n1)Nc1ccccc1
criterion not met
COc1ccc2nccc([C@@H](O)CN3CCC(NCc4nc5c(F)cccc5[nH]4)CC3)c2c1
criterion met
CC(C)(C)COC(=O)c1ccc(NC(=O)N[C@@H](Cc2ccc(O)cc2)C(=O)NC2CCN(Cc3ccc(O)cc3)C2)cc1 (some centres undefined)
criterion met
N#Cc1ccccc1C1CCN(C2CCC(Nc3cc(-c4cccnc4)ccn3)CC2)CC1 (centres undefined)
criterion not met
N=c1c2c(n(Cc3cccc(Cl)c3)c3c1CCC3)CCCC2
criterion met
O=C(/C=C/c1ccc(Cl)c(Cl)c1)N1CCC(NCc2c[nH]c3ccccc23)CC1
criterion not met
COc1ccc2nccc([C@@H](O)CN3CCC(NCc4ccc5c(n4)NCCC5)CC3)c2c1
criterion not met

Dear reviewer, please state whether CC1(C)S(=O)(=O)CC(O)CS1(=O)=O has IC50 strictly beneath 700 nM.
criterion met
